- assay name: chemical genetic growth profiling, strain panel (AID 1159580);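 note: tested at 20 µM; growth read once vehicle control cultures reached saturation at 30 °C; 1 = growth at the plate median or of vehicle wells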
- conditions used: S. cerevisiae deletion strains, growth OD, locus YOR231W, strain MKK1, active compounds read low
Out of some 5,500 compounds screened, about 2,000 (36%) were called active. Roughly 18% stayed inconclusive and do not appear here. The list shows a part of the results.
Rule: normalized growth below 1 gives satisfied, anything at or above gives not satisfied.

Example cases with answers are listed next.
- compound: "FC(F)(F)c1c2c(nc3cc(-c4ccco4)nn13)CCC2"
  assigned category: "satisfied"
- compound: "CC(=O)OC1CCC23CC1(C)CCC2C(C)(C)CC3OC(C)=O (stereo unspecified)"
  assigned category: "not satisfied"
- compound: "CC1=C(C(=O)O)N2C(=O)[C@@H](NC(=O)[C@@H](N)c3ccc(O)cc3)[C@H]2SC1"
  assigned category: "satisfied"

Alright, here's another compound for you.
QUERY: Is 1 strictly greater than the compound's reported normalized growth? compound: CC(=O)O[C@@H]1C2CC[C@@H]3C1(C[C@@H](O)[C@@]1(O)[C@@H](C[C@H](O)C1(C)C)[C@]3(C)O)C[C@@]2(C)O (stereo partly specified)
RESULT: satisfied

* * *

- assay name: chemical genetic growth profiling, strain panel (AID 1159580)
- conditions used: S. cerevisiae deletion strains, growth OD, locus YDL185W, strain tfp1
About 2,000 (36%) of roughly 5,500 compounds were called active. Not shown: some 18% with an inconclusive outcome. No stated cut-off is given here; in the data, active means normalized growth mostly below about 0.91 (no sharp cut-off); inconclusive means no clear call, values can overlap the other calls; inactive means mostly above about 0.92. The list shows a part of the results.
Write down the outcome that applies. Available outcomes: label 1 for active, label 0 for inactive

These recorded examples may help you get a feel for the data.
- compound: "CC1(C)CC23C(=O)CCC(O)C2(C)CCC13 (configuration not stated)"
  assigned category: "label 0"
- compound: "COC(=O)C[C@H]1C(C)(C)[C@@H](OC(C)=O)[C@@H]2CC3=C4CC(=O)O[C@@H](c5ccoc5)[C@]4(C)CCC3[C@@]1(C)C2=O (some centres not stated)"
  assigned category: "label 0"
- compound: "O=c1c(O)c(-c2ccccc2)oc2cc(O)ccc12"
  assigned category: "label 0"
- compound: "O=c1c(O)c(-c2ccccc2)oc2ccccc12"
  assigned category: "label 0"

QUERY: How did this test come out for COc1cc2c(cc1OC)C(C)NCC2 (configuration not stated) ?
RESULT: label 0

QUERY: Which result was noted for this compound in the test: `CC(=O)OCC1=C(C(=O)O)N2C(=O)[C@@H](NC(=O)CSc3ccncc3)[C@H]2SC1`
RESULT: label 0

QUERY: Recorded test call requested for `COc1cc2cccc(OC)c(=O)c2c(OC)c1OC`
RESULT: label 0

QUERY: Record lookup: outcome of this test for CN1CCCCC1c1ccc(-c2cccnc2)nc1 (configuration not stated) ?
RESULT: label 0

QUERY: Look up the recorded call for `O=c1c(O)c(-c2ccccc2)oc2ccc3occc3c12` in this test.
RESULT: label 0

QUERY: Hey, what did the test say about C=C(C)C1Cc2c(ccc(C(=O)O)c2O)O1 (configuration not stated) ?
RESULT: label 1

QUERY: # lookup: test call for CC(=O)OC[C@@]1(O)C[C@@]23CCC4c5ccoc5CC[C@]4(C)C2CC[C@@H]1C3 (some centres not stated)
RESULT: label 0

QUERY: Test call for this compound, please: ClC1C(Cl)C(Cl)C(Cl)C(Cl)C1Cl (configuration not stated)
RESULT: label 0

* * *

- assay name: chemical genetic growth profiling, strain panel (AID 1159580);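 note: tested at 20 µM; growth read once vehicle control cultures reached saturation at 30 °C; 1 = growth at the plate median or of vehicle wells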
- conditions used: S. cerevisiae deletion strains, growth OD, locus YKL160W, strain elf1, active compounds read low
In all, about 5,500 compounds went through this assay and about 2,000 (36%) were called active. Another 18% or so got no clear call; they are omitted. This is one part of the list.
measured metric: normalized growth
Answer with the value's number alone.

- compound: "CC(=CC1CCC(C)C2CCC(C)=C12)C(=O)O (stereo not given)"
  measured metric: "normalized growth"
  reported result: 0.939
- compound: "COc1cc2c(cc1OC)C(C)NCC2 (stereo not given)"
  measured metric: "normalized growth"
  reported result: 1.01
- compound: "C=CC[C@@H]1/C=C(\\C)C[C@H](C)C[C@H](OC)[C@H]2O[C@@](O)(C(=O)C(=O)N3CCCC[C@H]3C(=O)O[C@H](/C(C)=C/[C@@H]3CC[C@@H](O)[C@H](OC)C3)[C@H](C)[C@@H](O)CC1=O)[C@H](C)C[C@@H]2OC"
  measured metric: "normalized growth"
  reported result: 0.956
- compound: "O=C(N[C@@H](CO)[C@H](O)c1ccc([N+](=O)[O-])cc1)C(Cl)Cl"
  measured metric: "normalized growth"
  reported result: 1.04
- compound: "O=C(O)CCC(=O)OC[C@@H](NC(=O)C(Cl)Cl)[C@H](O)c1ccc([N+](=O)[O-])cc1"
  measured metric: "normalized growth"
  reported result: 0.98

QUERY: State its normalized growth: CCC1(C2=NCCN2)Cc2ccccc2O1 (stereo not given)
RESULT: 0.99

QUERY: Given CC1CC(OC(=O)c2ccccc2O)CC(C)(C)C1 (stereo not given) , respond with its normalized growth.
RESULT: 0.993

QUERY: Please give the documented normalized growth of COC1=CC23CCCN2CCc2cc4c(cc2C3C1O)OCO4 (stereo not given)
RESULT: 1.02

QUERY: Give the reported normalized growth for this compound. `COc1cc(O)c2c(c1)C(=O)c1cc(C)cc(O)c1C2=O`
RESULT: 0.997

QUERY: Indicate its recorded normalized growth; the compound in question is `CC1=C(C(=O)O)N2C(=O)[C@@H](NC(=O)[C@@H](N)c3ccc(O)cc3)[C@H]2SC1`
RESULT: 1.02

* * *

- assay name: chemical genetic growth profiling, strain panel (AID 1159580);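 note: tested at 20 µM; growth read once vehicle control cultures reached saturation at 30 °C; 1 = growth at the plate median or of vehicle wells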
- conditions used: S. cerevisiae deletion strains, growth OD, locus YNL067W, strain RPL9B, active compounds read low
Out of some 5,500 compounds screened, about 2,000 (36%) were called active. Another 18% or so got no clear call; they are omitted. The list shows a part of the results.
Label Condition met when normalized growth < 1; otherwise Condition not met.

- compound: "O=C(O)CCC(=O)OC[C@@H](NC(=O)C(Cl)Cl)[C@H](O)c1ccc([N+](=O)[O-])cc1"
  assigned category: "Condition not met"
- compound: "O=C(/C=C/c1ccccc1)c1ccc(O[C@@H]2O[C@H](CO)[C@@H](O)[C@H](O)[C@H]2O)cc1O"
  assigned category: "Condition met"

QUERY: Does the reported normalized growth of CC1(C)CC23C(=O)CCC(O)C2(C)CCC13 (stereo not given) stay below 1?
RESULT: Condition not met

QUERY: Identify whether the compound `COc1ccc(/C=C/c2cc(O)cc(O[C@@H]3O[C@H](CO)[C@@H](O)[C@H](O)[C@H]3O)c2)cc1` records normalized growth below 1.
RESULT: Condition not met

QUERY: Does this compound meet the criterion normalized growth < 1? CC(=O)OC[C@@]1(O)C[C@@]23CCC4c5ccoc5CC[C@]4(C)C2CC[C@@H]1C3 (stereo not given in full)
RESULT: Condition met

QUERY: Consider the compound `COc1ccc([C@@H](C)C(=O)c2ccc(O)cc2O)cc1` . Is its normalized growth strictly less than 1?
RESULT: Condition met

QUERY: Given the entry `CON` , would its reported normalized growth be below 1?
RESULT: Condition not met

* * *

- assay name: chemical genetic growth profiling, strain panel (AID 1159580);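 note: tested at 20 µM; growth read once vehicle control cultures reached saturation at 30 °C; 1 = growth at the plate median or of vehicle wells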
- conditions used: S. cerevisiae deletion strains, growth OD, locus YBR229C, strain ROT2
In all, about 5,500 compounds went through this assay and about 2,000 (36%) were called active. Inconclusive results (about 18%) are left out. Cut-off read from the data, not from the text of the source: active = normalized growth mostly below about 0.91 (no sharp cut-off); inconclusive = no clear call, values can overlap the other calls; inactive = mostly above about 0.92. The list shows a part of the results.
One label from this list, please: true for active, false for inactive

Field: example entries. Status: answers known.
- structure notation: "O=C(/C=C/c1ccccc1)c1ccc(O[C@@H]2O[C@H](CO)[C@@H](O)[C@H](O)[C@H]2O)cc1O"
  assigned category: "false"
- structure notation: "O[C@H]1[C@H](O)[C@@H](O)C2OC[C@H]1O2"
  assigned category: "false"
- structure notation: "COc1c([N+](=O)[O-])cc(C(F)(F)F)cc1[N+](=O)[O-]"
  assigned category: "false"
- structure notation: "O=C(/C=C/c1ccccc1)c1c(O)cc(O)cc1O"
  assigned category: "false"
- structure notation: "Cc1cc(O)c2c(c1)C(=O)c1cccc(O)c1C2=O"
  assigned category: "false"
- structure notation: "O=[N+]([O-])c1cc(C(F)(F)F)ccc1Oc1cc(C(F)(F)F)cc(C(F)(F)F)c1"
  assigned category: "false"

QUERY: So what was the verdict on `COc1ccc(Oc2ccc(C(F)(F)F)cc2[N+](=O)[O-])cc1` in this test?
RESULT: false

QUERY: Hey, what did the test say about `O=C(O)c1cc(O)c2c(c1)C(=O)c1cc(O)cc(O)c1C2=O` ?
RESULT: false

QUERY: Which outcome was entered for the compound `O=C1c2cccc(O)c2C(=O)c2c(O)cccc21` in this test?
RESULT: true

QUERY: Record lookup: outcome of this test for `CCCCN(CC)c1c([N+](=O)[O-])cc(C(F)(F)F)cc1[N+](=O)[O-]` ?
RESULT: false

QUERY: Would you mind telling me which call this test gave `O=C(/C=C/c1ccc(O)cc1)c1ccc(O)cc1O` ?
RESULT: false
